target: bovine cerebral TPK1 (Bos taurus, UniProt A0A3Q1MT31)
Sequence (A0A3Q1MT31 1-419): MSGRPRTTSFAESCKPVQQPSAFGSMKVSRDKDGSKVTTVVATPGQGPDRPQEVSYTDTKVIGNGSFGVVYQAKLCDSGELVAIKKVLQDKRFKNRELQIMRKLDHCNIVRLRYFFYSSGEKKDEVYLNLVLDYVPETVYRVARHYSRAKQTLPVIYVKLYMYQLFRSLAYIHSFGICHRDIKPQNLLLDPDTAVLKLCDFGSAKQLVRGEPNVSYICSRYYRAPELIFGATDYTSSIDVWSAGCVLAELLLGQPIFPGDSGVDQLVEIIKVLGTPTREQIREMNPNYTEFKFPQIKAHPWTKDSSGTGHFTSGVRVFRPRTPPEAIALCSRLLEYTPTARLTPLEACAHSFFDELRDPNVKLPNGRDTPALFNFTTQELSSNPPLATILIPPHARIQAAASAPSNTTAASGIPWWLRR
yes if IC50 is below 10 nM. no if not; exact matches included in no.

# count of solved cases: 5
COc1cccc(OC)c1[C@H]1CN(c2nc(-c3ccncc3)cc(=O)n2C)CCO1 :: yes
Cn1c(N2CCOC(C(=O)c3ccccc3)C2)nc(-c2ccncc2)cc1=O (single isomer, unassigned) :: yes
COc1cc(OC(C)C)ccc1C1CN(c2nc(-c3ccncc3)cc(=O)n2C)CCO1 (stereo not drawn) :: yes
Cn1c(N2CCOC(c3cccc(N4CCCC4)c3)C2)nc(-c2ccncc2)cc1=O (single isomer, unassigned) :: no
COc1cc(F)ccc1C(=O)C1CCN(c2nc(-c3ccncc3)cc(=O)n2C)CC1 :: no

For this molecule, is IC50 lower than 10 nM? `Cn1c(NCC(=O)c2cccc(Cl)c2)nc(-c2ccncc2)cc1=O`
no

For this molecule, is IC50 lower than 10 nM? `Cn1c(N2CCC(C(=O)c3ccc(F)cc3)CC2)nc(-c2ccncc2)cc1=O`
no
